targetUnderTest: Nuclear receptor subfamily 1 group I member 2 (Homo sapiens) (UniProt O75469)
protocolDescription: Human pregnane X receptor (PXR) activation by small molecules, qHTS assay (AID 1346985); also: nearly all actives have a fitted effect of over 40% in size
conditionLabel: DPX-2 HepG2 CYP3A4-luciferase, 24 h; series mostly up to 38.3 µM
Inconclusive results are not listed. The source made the active and inactive calls. Calls follow the shape of the dose curve; as a rule, active = well fitted activation curve with a large enough effect in the repeat runs; inconclusive = weak or mixed curves; inactive = flat fitted curve, though single readings scatter.
Choose the fitting class; nothing outside active, inactive is accepted.

Write down the call the test reported for this compound. Item: CCOC(=O)c1cccnc1
inactive

Write down the call the test reported for this compound. Item: OC(CN1CCC(Cc2ccc(F)cc2)CC1)c1ccc(Cl)cc1 (stereo unspecified)
inactive

Write down the call the test reported for this compound. Item: COc1ccc(C(=O)N2CCN(CC(=O)N3CCOCC3)CC2)cc1
inactive

Write down the call the test reported for this compound. Item: CC(=O)c1ccc2c(c1)N(CCCN(C)C)c1ccccc1S2
inactive

Write down the call the test reported for this compound. Item: CCCCC
inactive

Write down the call the test reported for this compound. Item: Clc1ccc2c(c1)CCc1cccnc1C2=C1CCNCC1
active

Write down the call the test reported for this compound. Item: CO[C@@H]1[C@H](OC(=O)/C=C/C=C/C=C/C=C/C(=O)O)CC[C@]2(CO2)[C@H]1[C@@]1(C)O[C@@H]1CC=C(C)C
inactive

Write down the call the test reported for this compound. Item: Nc1ccc(S(=O)(=O)Nc2ccccc2)cc1
inactive

Write down the call the test reported for this compound. Item: COc1cc2nc(N(C)CCCNC(=O)C3CCCO3)nc(N)c2cc1OC (stereo unspecified)
inactive

Write down the call the test reported for this compound. Item: CCn1cc(C(=O)O)c(=O)c2cnc(N3CCNCC3)nc21
inactive

Write down the call the test reported for this compound. Item: Nc1ncn([C@H]2C[C@H](O)[C@@H](CO)O2)c(=O)n1
inactive

Write down the call the test reported for this compound. Item: OCc1cc(C(O)CNCCCCCCOCCCCc2ccccc2)ccc1O (stereo unspecified)
inactive

Write down the call the test reported for this compound. Item: CCCCC1=NC2(CCCC2)C(=O)N1Cc1ccc(-c2ccccc2-c2nn[nH]n2)cc1
inactive

Write down the call the test reported for this compound. Item: C=C1C(=C/C=C2\CCC[C@]3(C)[C@@H]([C@H](C)/C=C/[C@@H](O)C4CC4)CC[C@@H]23)C[C@@H](O)C[C@@H]1O
inactive

Write down the call the test reported for this compound. Item: CCCCCCCCCc1ccc(OCCOCCO)cc1
inactive

Write down the call the test reported for this compound. Item: O=C1C(O)=C(O)C(=O)C(O)=C1O
inactive

Write down the call the test reported for this compound. Item: N=c1ccn2c(n1)O[C@H]1[C@H](O)[C@@H](CO)O[C@H]12
inactive

Write down the call the test reported for this compound. Item: Nc1c(CC(=O)O)cccc1C(=O)c1ccc(Br)cc1
inactive

Write down the call the test reported for this compound. Item: CC(=O)OC[C@H]1O[C@@H](n2ncc(=O)[nH]c2=O)[C@H](OC(C)=O)[C@@H]1OC(C)=O
inactive

Write down the call the test reported for this compound. Item: NCc1ccccc1Sc1ccccc1CO
inactive

Write down the call the test reported for this compound. Item: CC1(c2ccccc2)OC(C(=O)O)=CC1=O (stereo unspecified)
inactive

###

targetUnderTest: Cytochrome P450 2C9 (Homo sapiens)
protocolDescription: Cytochrome P450 Family 2 Subfamily C Member 9 (CYP2C9) small molecule antagonists: luciferase reporter qHTS assay (AID 1671198); also: nearly all actives have a fitted effect of over 50% in size
conditionLabel: P450-Glo CYP2C9 enzyme assay, luciferin luminescence; series mostly up to 115 µM
Records with an inconclusive call do not appear. Activity calls are given as the source filed them. Calls follow the shape of the dose curve; as a rule, active = well fitted inhibition curve with a large enough effect in the repeat runs; inconclusive = weak or mixed curves; inactive = no such curve, though single readings can be large or run the other way.
Choose the fitting class; nothing outside Yes for active, No for inactive is accepted.

Write down the call the test reported for this compound. Item: CC1=CCCC(C)(C)C12CCC(C)O2 (configuration not stated)
Yes

Write down the call the test reported for this compound. Item: CC(C)(C)Cl
No

Write down the call the test reported for this compound. Item: CN1CCC(N(Cc2cccs2)c2ccccc2)CC1
No

Write down the call the test reported for this compound. Item: CNCCCN1c2ccccc2CCc2ccccc21
No

Write down the call the test reported for this compound. Item: CCOCC(O)COc1ccc(NC(=O)CC[S+](C)C)cc1 (configuration not stated)
No

Write down the call the test reported for this compound. Item: C=CC(=O)OCCOCCOCCOCCOC(=O)C=C
No

Write down the call the test reported for this compound. Item: O=[N+]([O-])c1ccc(NCCO)c(OCCO)c1
No

###

protocolDescription: qHTS assay for small molecule activators of the heat shock response signaling pathway - cell viability counter screen (AID 743209); also: nearly all actives have a fitted effect of over 50% in size
conditionLabel: HSE-bla HeLa viability, CellTiter-Glo luminescence, 5 h; series mostly up to 62.6 µM
Excerpt: U.S. Tox21 Program National Center for Advancing Translational Sciences [NCATS] NIH Chemical Genomics Center [NCGC] U.S. Environmental Protection Agency [EPA] National Institutes of Environmental Health Sciences [NIEHS] National Toxicology Program [NTP] U.S. Food and Drug Administration [FDA] Tox21 Assay Overview: Various chemicals, environmental and physiological stress conditions may lead to the activation of heat shock response/ unfolded protein response (HSR/UPR). […]
Inconclusive results are not listed. Active and inactive are the calls of the source. Calls come from the whole dose curve; as a rule, active = well fitted cell-killing curve with a large enough effect in the repeat runs; inconclusive = weak or mixed curves, or effect the other way; inactive = no such curve, though single readings can be large or run the other way.
endpoint: activity change, negative = cytotoxicity

Some solved cases for reference:
molecularstring=CCCn1cnc2c1c(=O)n(CCCCC(C)=O)c(=O)n2C result=inactive
molecularstring=CCOc1ccc(N=Nc2ccc(/C=C/c3ccc(N=Nc4ccc(OCC)cc4)cc3S(=O)(=O)O)c(S(=O)(=O)O)c2)cc1 result=inactive
molecularstring=CC(=O)OC[C@H]1O[C@@H](n2ncc(=O)[nH]c2=O)[C@H](OC(C)=O)[C@@H]1OC(C)=O result=inactive
molecularstring=c1ccc(CNCCNCc2ccccc2)cc1 result=inactive

Moving on to the next molecule.
What measured activity change, negative = cytotoxicity goes with Cc1ccc(N=Nc2c(O)c(C(=O)O)cc3ccccc23)c(S(=O)(=O)O)c1 ?
inactive

###

targetUnderTest: Nuclear receptor subfamily 1 group I member 3 (Homo sapiens)
protocolDescription: qHTS assay to identify small molecule agonists of the constitutive androstane receptor (CAR) signaling pathway (AID 1224839); also: nearly all actives have a fitted effect of over 15% in size;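 as to activation: HepG2 cells stably carrying human CAR and a CYP2B6 luciferase reporter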
conditionLabel: HepG2 hCAR CYP2B6-luciferase, agonist mode, 24 h; series mostly up to 42.5 µM
Results filed as inconclusive are left out. Calls of active or inactive are those of the source. Calls follow the shape of the dose curve; as a rule, active = well fitted activation curve with a large enough effect in the repeat runs; inconclusive = weak or mixed curves; inactive = no such curve, though single readings can be large or run the other way.
Choose the fitting class; nothing outside active, inactive is accepted.

Write down the call the test reported for this compound. Item: CCOC(=O)NCCOc1ccc(Oc2ccccc2)cc1
active

Write down the call the test reported for this compound. Item: Cc1cccc(C)c1NC(=O)CN(CC(=O)O)CC(=O)O
inactive

Write down the call the test reported for this compound. Item: COCC(C)OC(C)=O (centres undefined)
inactive

Write down the call the test reported for this compound. Item: CCC(CC)Nc1ccc(C)c(C)c1
inactive

Write down the call the test reported for this compound. Item: CN1CCC(N(Cc2cccs2)c2ccccc2)CC1
inactive

Write down the call the test reported for this compound. Item: Nc1ccc(N)c2c1C(=O)c1ccccc1C2=O
inactive

Write down the call the test reported for this compound. Item: CC1(c2ccccc2)OC(C(=O)O)=CC1=O (centres undefined)
inactive

Write down the call the test reported for this compound. Item: CN(C)CCN(Cc1ccc(Cl)cc1)c1ccccn1
inactive

Write down the call the test reported for this compound. Item: CC(C)(COC(=O)c1ccccc1)COC(=O)c1ccccc1
inactive

Write down the call the test reported for this compound. Item: CCOC(=O)C(=O)CCc1ccccc1
inactive

Write down the call the test reported for this compound. Item: CCCCCCCCCc1ccc(OCCOCCO)cc1
inactive

Write down the call the test reported for this compound. Item: C=CCOc1ccccc1OCC(O)CNC(C)C (centres undefined)
inactive

Write down the call the test reported for this compound. Item: COc1ccc(C(=O)c2ccc(OC)cc2O)c(O)c1
active

Write down the call the test reported for this compound. Item: COc1ccc(C)cc1[N+](=O)[O-]
inactive

###

protocolDescription: qHTS assay to test for compound auto fluorescence at 590 nm (red) in HepG2 cells (AID 720674)
conditionLabel: HepG2 autofluorescence, red 540/590 nm, 1 h; series mostly up to 91.3 µM
Calls of active or inactive are those of the source. The call rests on the fitted dose curve; in most records, active means well fitted curve in the direction sought with a large enough effect in the repeat runs; inconclusive means weak or mixed curves; inactive means flat fitted curve, though single readings scatter.
endpoint: fluorescence, relative to Rose Bengal

Some solved cases for reference:
compound=Cc1oc(-c2ccccc2)nc1CCOc1cccc2c1ccn2CCC(=O)O result=inactive
compound="CC(CSC(=O)c1ccccc1)C(=O)N1C[C@@H](Sc2ccccc2)C[C@H]1C(=O)O (stereo not given in full)" result=inactive
compound=O=C(Cl)c1cc(C(=O)Cl)cc(C(=O)Cl)c1 result=inactive
compound=CN(C)c1ccc(C(c2ccccc2)c2ccc(N(C)C)cc2)cc1 result=inactive

Moving on to the next compound.
What measured fluorescence, relative to Rose Bengal goes with COc1cc2nc(N3CCN(C(=O)C4COc5ccccc5O4)CC3)nc(N)c2cc1OC (stereo not given) ?
inactive

###

protocolDescription: qHTS assay to identify small molecule antagonists of the estrogen related receptor signaling pathway with the pleiotropic PPARgamma coactivator (PGC) from Tox21 10K library (AID 1224841); also: actives are mostly falling curves and most rising ones were filed inactive; nearly all actives have a fitted effect of over 50% in size; also: potency is read from the fitted curve at half-maximal effect
conditionLabel: PGC/ERR reporter cell line, ONE-Glo luciferase, 18 h; series mostly up to 92.4 µM
Source text: U.S. Tox21 Program National Center for Advancing Translational Sciences [NCATS] NIH Chemical Genomics Center [NCGC] U.S. Environmental Protection Agency [EPA] National Institutes of Environmental Health Sciences [NIEHS] National Toxicology Program [NTP] U.S. Food and Drug Administration [FDA] Tox21 Assay Overview: Estrogen related receptors (ERRs), the first orphan nuclear receptors discovered, play an important role in the control of cellular energy metabolism. […]
Records with an inconclusive call do not appear. Activity calls are given as the source filed them. The rule behind the calls is not given here.
endpoint: Potency

compound=CO[C@@H]1[C@H](OC(=O)/C=C/C=C/C=C/C=C/C(=O)O)CC[C@]2(CO2)[C@H]1[C@@]1(C)O[C@@H]1CC=C(C)C result=inactive
compound=O=C1CCCCCCCCCCCC(=O)OCCO1 result=inactive
compound=C=C(C)C(=O)OCC result=inactive
compound=CN1CCC(N(Cc2cccs2)c2ccccc2)CC1 result=inactive

What measured Potency goes with CCN(CC)CCNC(=O)c1cc(Br)c(N)cc1OC ?
inactive

What measured Potency goes with CCc1c(C(=O)NN2CCCCC2)nn(-c2ccc(Cl)cc2Cl)c1-c1ccc(Br)cc1 ?
4.86 µM (active)

What measured Potency goes with CC(=O)[O][Al] ?
inactive

What measured Potency goes with O=[N+]([O-])c1cccc(S(=O)(=O)O)c1 ?
55.3 µM (active)

What measured Potency goes with CCCCCCCC/C=C\CCCCCCCC(=O)OCC ?
inactive

What measured Potency goes with O=C(c1ccc(F)cc1)C1CCN(CCn2c(=S)[nH]c3ccccc3c2=O)CC1 ?
26.6 µM (active)

What measured Potency goes with Cc1ncc(CO)c(C=O)c1O ?
inactive

The measurements presented in this section are drawn from PubChem BioAssay (Tox21).
